# Target: HLA-DR DRB5*0101 (human)
# Assay Details: competition with 125I-labelled peptide for purified HLA-DR
Parameter Measured: IC50 (nM)
Kindly answer with a numeric value in nM, unit omitted.

Input line: Looking for the measured IC50 of RREVHIYYLEKANKI (modifications not checked) [Flu.PA.127] , can you help?
Output line: 25

// provenance: patent US20080032921A1
